Entry source: paper PMC5786788

test system: C. neoformans H99; settings: H99, 72 h
Where a SMILES comes first, the peptide text is derived from it. Bridges are numbered along the chain shown (N, C = ends). [ ]: non-standard residue; d: D form. The star is where a group is joined. Decanoyl(3R-OH) = CCCCCCC[C@@H](O)CC(=O)*; dDab = NCC[C@@H](N)C(=O)O; Dab = NCC[C@H](N)C(=O)O
Measured MICs against various Cryptococcus strains: H99, listed per entry for reference.
# unit: µg/mL | format: bare number

CCCCCCC[C@@H](O)CC(=O)N[C@H](CCN)C(=O)N[C@H]1CCNC(=O)[C@H](CC(C)C)NC(=O)[C@H](CCN)NC(=O)[C@H](CCN)NC(=O)[C@H](C)NC(=O)[C@@H](Cc2ccccc2)NC(=O)[C@H](CCN)NC1=O [Compound P5] ({Decanoyl(3R-OH)}-[dDab][Dab][Dab][dF]A[Dab][Dab]L; lactam 2-C); 12.5
CCCCCCC[C@@H](O)CC(=O)N[C@H](C)C(=O)N[C@H]1CCNC(=O)[C@H](CC(C)C)NC(=O)[C@H](CCN)NC(=O)[C@H](CCN)NC(=O)[C@H](CC(C)C)NC(=O)[C@@H](Cc2ccccc2)NC(=O)[C@H](CCN)NC1=O [Compound P1D] ({Decanoyl(3R-OH)}-[dA][Dab][Dab][dF]L[Dab][Dab]L; lactam 2-C); 6.25
CCCCCCC[C@@H](O)CC(=O)N[C@H](CCN)C(=O)N[C@H]1CCNC(=O)[C@H](CC(C)C)NC(=O)[C@H](CCN)NC(=O)[C@H](CCN)NC(=O)[C@H](CC(C)C)NC(=O)[C@H](C)NC(=O)[C@H](CCN)NC1=O [Compound P4L] ({Decanoyl(3R-OH)}-[dDab][Dab][Dab]AL[Dab][Dab]L; lactam 2-C); 50.0
CCCCCCC[C@@H](O)CC(=O)N[C@@H](C)C(=O)N[C@H]1CCNC(=O)[C@H](CC(C)C)NC(=O)[C@H](CCN)NC(=O)[C@H](CCN)NC(=O)[C@H](CC(C)C)NC(=O)[C@@H](Cc2ccccc2)NC(=O)[C@H](CCN)NC1=O [Compound P1L] ({Decanoyl(3R-OH)}-A[Dab][Dab][dF]L[Dab][Dab]L; lactam 2-C); 12.5
CCCCCCC[C@@H](O)CC(=O)N[C@H](CCN)C(=O)N[C@H]1CCNC(=O)[C@H](CC(C)C)NC(=O)[C@H](C)NC(=O)[C@H](CCN)NC(=O)[C@H](CC(C)C)NC(=O)[C@@H](Cc2ccccc2)NC(=O)[C@H](CCN)NC1=O [Compound P7] ({Decanoyl(3R-OH)}-[dDab][Dab][Dab][dF]L[Dab]AL; lactam 2-C); 6.25

Query block: Which MICs against various Cryptococcus strains: H99 is reported for this molecule? CCCCCCC[C@@H](O)CC(=O)N[C@H](CCN)C(=O)N[C@H]1CCNC(=O)[C@H](CC(C)C)NC(=O)[C@H](CCN)NC(=O)[C@H](C)NC(=O)[C@H](CC(C)C)NC(=O)[C@@H](Cc2ccccc2)NC(=O)[C@H](CCN)NC1=O [Compound P6] ({Decanoyl(3R-OH)}-[dDab][Dab][Dab][dF]LA[Dab]L; lactam 2-C)
Result block: 6.25

Query block: Which MICs against various Cryptococcus strains: H99 value is on record for CCCCCCC[C@@H](O)CC(=O)N[C@H](CCN)C(=O)N[C@H]1CCNC(=O)[C@H](CC(C)C)NC(=O)[C@H](CCN)NC(=O)[C@H](CCN)NC(=O)[C@H](CC(C)C)NC(=O)[C@@H](Cc2ccccc2)NC(=O)[C@H](C)NC1=O [Compound P3] ({Decanoyl(3R-OH)}-[dDab][Dab]A[dF]L[Dab][Dab]L; lactam 2-C) ?
Result block: 6.25

Query block: Quick one: MICs against various Cryptococcus strains: H99 of CCCCCCC[C@@H](O)CC(=O)N[C@H](CCN)C(=O)N[C@H]1CCNC(=O)[C@H](CC(C)C)NC(=O)[C@H](CCN)NC(=O)[C@H](CCN)NC(=O)[C@H](CC(C)C)NC(=O)[C@@H](C)NC(=O)[C@H](CCN)NC1=O [Compound P4D] ({Decanoyl(3R-OH)}-[dDab][Dab][Dab][dA]L[Dab][Dab]L; lactam 2-C) ?
Result block: 12.5

Query block: Which measured MICs against various Cryptococcus strains: H99 value corresponds to CCCCCCC[C@@H](O)CC(=O)N[C@H](CCN)C(=O)N[C@H]1CCNC(=O)[C@H](CC(C)C)NC(=O)[C@H](CCN)NC(=O)[C@H](CCN)NC(=O)[C@H](CC(C)C)NC(=O)[C@@H](Cc2ccccc2)NC(=O)[C@H](CCN)NC1=O [Octapeptin C4, octapeptin C4] ({Decanoyl(3R-OH)}-[dDab][Dab][Dab][dF]L[Dab][Dab]L; lactam 2-C (inferred); N-terminus assumed) ?
Result block: 1.56

Query block: Give the measured MICs against various Cryptococcus strains: H99 of CCCCCCC[C@@H](O)CC(=O)N[C@H](CCN)C(=O)N[C@H]1CCNC(=O)[C@H](C)NC(=O)[C@H](CCN)NC(=O)[C@H](CCN)NC(=O)[C@H](CC(C)C)NC(=O)[C@@H](Cc2ccccc2)NC(=O)[C@H](CCN)NC1=O [Compound P8] ({Decanoyl(3R-OH)}-[dDab][Dab][Dab][dF]L[Dab][Dab]A; lactam 2-C) .
Result block: 50.0
